Reported # of Jumps (SEM), naloxone-precipitated withdrawal values for the following molecules.
system: male ICR mice; assay: Physical dependence: naloxone-precipitated withdrawal jumping after chronic ICV infusion; assay type: in vivo, mouse; conditions: average jumps in 10 minutes after naloxone 1 mg/kg sc, after 3-day ICV infusion

Use the examples below as a reference point.
molecule	result
CNC(=O)COCC(=O)NCCCCCNC(=O)COCC(=O)NC1CCC2(O)C3Cc4ccc(O)c5c4C2(CCN3C)C1O5 (centres unmarked) [Compound 12, reference compound]	83 (13)
CN1CCC23c4c5ccc(O)c4OC2C(NC(=O)COCC(=O)NCCCNC(=O)COCC(=O)Nc2cccc4c6c([nH]c24)C2Oc4c(O)ccc7c4C24CCN(CC2CC2)C(C7)C4(O)C6)CCC3(O)C1C5 (centres unmarked) [Compound 4]	0.9 (0.7)
CN1CCC23c4c5ccc(O)c4OC2C(NC(=O)COCC(=O)NCCCCNC(=O)COCC(=O)Nc2cccc4c6c([nH]c24)C2Oc4c(O)ccc7c4C24CCN(CC2CC2)C(C7)C4(O)C6)CCC3(O)C1C5 (centres unmarked) [Compound 5]	8.9 (3.0)
CN1CCC23c4c5ccc(O)c4OC2C(NC(=O)COCC(=O)NCCCCCNC(=O)COCC(=O)Nc2cccc4c6c([nH]c24)C2Oc4c(O)ccc7c4C24CCN(CC2CC2)C(C7)C4(O)C6)CCC3(O)C1C5 (centres unmarked) [Compound 6]	3.6 (1.7)
CN1CCC23c4c5ccc(O)c4OC2C(NC(=O)COCC(=O)NCCCCCCNC(=O)COCC(=O)Nc2cccc4c6c([nH]c24)C2Oc4c(O)ccc7c4C24CCN(CC2CC2)C(C7)C4(O)C6)CCC3(O)C1C5 (centres unmarked) [Compound 7]	0.4 (0.4)
CN1CCC23c4c5ccc(O)c4OC2C(NC(=O)COCC(=O)NCCNC(=O)COCC(=O)Nc2cccc4c6c([nH]c24)C2Oc4c(O)ccc7c4C24CCN(CC2CC2)C(C7)C4(O)C6)CCC3(O)C1C5 (centres unmarked) [Compound 3]	30 (23)

Determine its reported # of Jumps (SEM), naloxone-precipitated withdrawal: CN1CCC23c4c5ccc(O)c4OC2C(NC(=O)COCC(=O)NCCCCCCCNC(=O)COCC(=O)Nc2cccc4c6c([nH]c24)C2Oc4c(O)ccc7c4C24CCN(CC2CC2)C(C7)C4(O)C6)CCC3(O)C1C5 (centres unmarked) [Compound 8]
3.5 (1.7)

Please give measured # of Jumps (SEM), naloxone-precipitated withdrawal of the following entry: CN1CC[C@]23c4c5ccc(O)c4O[C@H]2[C@@H](O)C=C[C@H]3[C@H]1C5 [Morphine, reference compound]
100 (15)
